meta.source: ChEMBL document CHEMBL1828542

- assay details: Cytotoxicity against african green monkey Vero cells after 72 hrs by resazurin assay
- Type: cell-based
- run conditions: chlorocebus sabaeus
assay endpoint: CC50 at 72 h

> print(dat)
                      smiles.representation  assay.endpoint    result
1  COc1ccc(-c2csc(N/N=C3/CCCc4c(OC)cccc43)n2)cc1OC    CC50 at 72 h  > 244 µM
2  COc1cccc2c1CCC/C2=N/Nc1nc(-c2ccc(F)cc2)cs1    CC50 at 72 h  > 300 µM

====

Reported MIC is given for each of the following compounds.
- Test system: Mycobacterium tuberculosis
- assay details: Antimicrobial activity against Mycobacterium tuberculosis H37Rv after 4 weeks by agar dilution assay
- Assay type: functional
- run conditions: 672 h
assay endpoint: MIC

> print(dat)
                      smiles.representation  assay.endpoint        result
1  Fc1ccc(-c2csc(N/N=C/c3cn(Cc4ccc(Cl)cc4Cl)c4ccccc34)n2)cc1             MIC  > 12.5 µg/mL
2   COc1ccc(-c2csc(Nc3ccccc3C(F)(F)F)n2)cc1             MIC  > 12.5 µg/mL
3  COc1ccc(-c2csc(N/N=C/c3cn(Cc4ccc(Cl)cc4Cl)c4ccccc34)n2)cc1OC             MIC  > 12.5 µg/mL
4                           NNC(=O)c1ccncc1             MIC     < 1 µg/mL
